Origin of the recorded values: a melting point compilation (Tetko et al.; mined from patent text by program, amines drawn as free bases though some values may be those of a salt)

Property Name: melting point

Consider the following illustrative entries.
- Molecule: "O=[N+]([O-])c1c(-c2cc(Cl)cc(Cl)c2)[nH]c2c(Cl)cc(Cl)cc12"
  melting point: "272 to 273 °C"
- Molecule: "O=C1C=C(NC(=O)C(=O)c2cn(Cc3c(F)cccc3F)c3ccccc23)CO1"
  melting point: "252 to 256 °C"
- Molecule: "O=C(NCCNCCNC(=O)c1cccc2cc3ccccc3nc12)c1cccc2cc3ccccc3nc12"
  melting point: "182 to 184 °C"
- Molecule: "C(=Cc1ccc2ccccc2c1)c1ccccc1"
  melting point: "143 to 145 °C"

Prompt line: Specify measured melting point for `O=C1c2ccccc2C(=O)N1CC(=CF)CBr` .
Response line: 86 to 87 °C

Prompt line: Specify measured melting point for `CNCC1=NN=C(c2ccc([N+](=O)[O-])cc2)c2cc3c(cc2C1)OCO3` .
Response line: 110 to 112 °C

Prompt line: Specify measured melting point for CCOC(=O)c1sc(Oc2ccccc2)c2c1CCC(C(OCC)OCC)C2=O (stereo not drawn) .
Response line: 73 to 74 °C
